Provide the recorded composite z-score for the entries that follow.
- target.under.test: Fibroblast growth factor 10 (Homo sapiens) (UniProt O15520)
- Sequence (O15520 whole entry, looked up): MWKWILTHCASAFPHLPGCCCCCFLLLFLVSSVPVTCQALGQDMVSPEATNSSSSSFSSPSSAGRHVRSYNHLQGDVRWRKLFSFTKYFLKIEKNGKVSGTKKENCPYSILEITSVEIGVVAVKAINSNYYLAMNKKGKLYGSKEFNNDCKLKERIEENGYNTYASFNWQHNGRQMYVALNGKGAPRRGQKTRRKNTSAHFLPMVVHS
- assay.info: FGF10 binders on small-molecule microarrays, primary screen, biochemical, small-molecule microarray, 635 nm fluorescence (AID 1102)
- condition.label: FGF10 binding, fluorescence 635 nm, higher = more signal

Some molecules with recorded composite z-score:
(Q) // returns reported composite z-score for input C[C@@H]1CC[C@H]2C(=O)O[C@@H](COc3ccc(C(C)(C)C)cc3)CN2[C@H]1c1ccc(Br)cc1
(A) 0.0543

(Q) // returns reported composite z-score for input CCOC(=O)[C@H](Cc1ccccc1)NC(=O)CCC1CC(OC(=O)NCCc2ccc(F)cc2)CC2(CCCC(COC(=O)NCCC(C)C)O2)O1 (some centres not stated)
(A) 0.52

(Q) // returns reported composite z-score for input CC(=O)OC[C@H]1O[C@@H](ON=C2[C@H]3CCn4c(=O)n(-c5ccccc5)c(=O)n4[C@H]3[C@H](O)[C@@H]3O[C@H]23)[C@H](OC(C)=O)[C@@H](OC(C)=O)[C@@H]1OC(C)=O
(A) 0.614

(Q) // returns reported composite z-score for input CCOC(=O)CCN1C(=O)[C@H]2[C@H]3[C@H](O)[C@H](O)CC(=NOCC=C(C)CCC=C(C)C)[C@H]3CC[C@H]2C1=O
(A) 0.245

(Q) // returns reported composite z-score for input CON=C(C)CCC(=O)OC[C@H]1O[C@H](C#Cc2ccccc2)C=C[C@@H]1Oc1ccc(C)cc1
(A) 0.19

(Q) // returns reported composite z-score for input CC(CCN1CCCc2nc(C)c(C)cc21)=NO[C@H](C)c1cn([C@H](CO)Cc2ccccc2)nn1
(A) 0.59

Consider the record given below.
(Q) // returns reported composite z-score for input CC(C)=NOC(C)CN1CCCc2nc(C)c(C)cc21 (configuration not stated)
(A) 0.809

====

- assay.info: fission yeast growth modulation, primary screen, strain 972, OD600, 24 h, no modulator (AID 1090);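 note: basal condition with compound alone and no growth modifier present; test concentration not given here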
- condition.label: S. pombe 972 growth, higher = more signal, called active from +8 up or from −8 down
Provide the recorded z-score for the entries that follow.
One number for each entry.

Some compounds with recorded z-score:
(Q) // returns reported z-score for input CCOC(=O)NN=C1C[C@@H](O)[C@@H](O)[C@@H]2[C@@H]3C(=O)N(CC)C(=O)[C@@H]3CC[C@H]12
(A) 0.324

(Q) // returns reported z-score for input CCc1cc2c(nc1CC)CCN(CCC(C)=NOC[C@@H](C)[C@H](OCc1ccccc1)C(C)C)C2
(A) -4.16

Consider the record given below.
(Q) // returns reported z-score for input COCCNC(=O)OCC1CCCC2(CC(OC(=O)NCc3cccc4ccccc34)CC(CCC(=O)N[C@@H](C)C(=O)OC)O2)O1 (stereo partly drawn)
(A) 1.4

====

- target.under.test: Dihydroorotate dehydrogenase (quinone), mitochondrial (Plasmodium falciparum (isolate 3D7)) (UniProt Q08210)
- Sequence (Q08210 whole entry, looked up): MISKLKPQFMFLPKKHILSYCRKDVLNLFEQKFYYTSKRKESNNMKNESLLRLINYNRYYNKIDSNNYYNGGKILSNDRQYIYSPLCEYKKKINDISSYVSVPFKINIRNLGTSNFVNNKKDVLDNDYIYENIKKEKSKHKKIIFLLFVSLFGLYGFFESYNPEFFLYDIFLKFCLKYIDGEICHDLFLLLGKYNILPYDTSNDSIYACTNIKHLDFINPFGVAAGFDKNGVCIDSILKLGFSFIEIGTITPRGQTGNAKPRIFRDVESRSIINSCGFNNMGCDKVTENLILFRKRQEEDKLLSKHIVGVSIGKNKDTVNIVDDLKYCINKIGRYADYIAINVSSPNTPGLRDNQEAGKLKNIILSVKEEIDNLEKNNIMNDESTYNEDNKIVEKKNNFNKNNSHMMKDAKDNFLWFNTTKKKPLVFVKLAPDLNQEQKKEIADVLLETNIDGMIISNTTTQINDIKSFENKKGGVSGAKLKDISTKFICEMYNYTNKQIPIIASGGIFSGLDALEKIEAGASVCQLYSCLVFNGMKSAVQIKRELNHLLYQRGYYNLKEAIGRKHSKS
- assay.info: PfDHODH enzyme inhibitors, primary screen, biochemical, C-terminal His tag, absorbance 600 nm (AID 1175);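 note: recombinant parasite enzyme with a five histidine tag at its C terminus; test concentration not given here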
- condition.label: DCIP absorbance 600 nm, higher = more signal, called active from +8 up or from −8 down
value.type: composite z-score
Answers are plain numbers.

I have 7 molecules here; please give me composite z-score for each one.
1. Cc1ccc(S(=O)(=O)N[C@@H]2COC(=O)CC=C[C@@H](C)[C@H](NS(=O)(=O)c3ccc(C)cc3)COC(=O)[C@H](C)NC(=O)CC=C[C@H]2C)cc1
2. CCOC(=O)[C@H](Cc1ccccc1)NC(=O)CCC1CC(OC(=O)NCc2ccc3c(c2)OCO3)CC2(CCCC(COC(=O)NCCc3ccc(Cl)cc3)O2)O1 (stereo not given in full)
3. CCN1C(=O)[C@H]2[C@H]3[C@H](O)[C@H](O)CC(=NO[C@H](C)c4cn([C@H](CO)Cc5ccccc5)nn4)[C@@H]3CC[C@H]2C1=O
4. O=C1[C@H]2[C@H]3[C@H](O)[C@H](O)CC(=NOCc4ccccc4)[C@@H]3CC[C@H]2C(=O)N1c1cccc(Oc2ccccc2)c1
5. COC(=O)[C@@H]1CC[C@H](C)[C@@H](c2ccc(C)cc2)N1C(=O)c1ccc(C=NOC[C@H]2O[C@H](c3ccccc3)C=C[C@@H]2Oc2ccc(OC)cc2)cc1
6. CCOC(=O)[C@H](CC(C)C)NC(=O)CCC1CC(OC(=O)NCc2ccc3c(c2)OCO3)CC2(CCCC(COC(=O)NCCOc3ccccc3)O2)O1 (stereo not given in full)
7. COC(=O)[C@@H]1CC[C@H](C)[C@@H](c2ccc(Br)cc2)N1

(A)
1: 0.576; 2: -1.47; 3: -0.613; 4: -0.0818; 5: 0.13; 6: 0.0657; 7: 0.496

I have 7 molecules here; please give me composite z-score for each one.
1. O=C1[C@H]2CCn3c(=O)n(-c4ccccc4)c(=O)n3[C@H]2[C@H](O)[C@@H]2O[C@H]12
2. C[C@@H]1CC[C@H]2C(=O)N3[C@@H](CC[C@@H](C)[C@@H]3c3ccc(Br)cc3)C(=O)N2[C@H]1c1ccc(Br)cc1
3. CC#CCOCCC=C1c2ccccc2[C@@H](OC)[C@@H]1C
4. COc1cccc([C@H]2Oc3ccc(OC)cc3C(=NOCC[C@@H]3C=C[C@H](OC(C)=O)[C@@H](COC(C)=O)O3)[C@@H]2O)c1
5. CC(CCN1CCCCc2nc(C)c(C)cc21)=NO[C@@H](C)c1cc(-c2c(C)cc(C)cc2C)no1
6. C#CCCCON=C1[C@H]2CCn3c(=O)n(Cc4cc5c(cc4Cl)OCO5)c(=O)n3[C@H]2[C@H](O)[C@@H]2O[C@H]12
7. COC(=O)[C@@H]1CC[C@H](C)[C@@H](c2ccc(Br)cc2)N1C(=O)C(F)(F)F

(A)
[-0.106, 0.553, -0.412, 0.472, -0.525, 0.605, 0.724]

I have 5 molecules here; please give me composite z-score for each one.
1. O=C1[C@H]2[C@H]3[C@H](O)[C@H](O)CC(=NO[C@@H]4O[C@H](CO)[C@@H](O)[C@H](O)[C@H]4O)[C@@H]3CC[C@H]2C(=O)N1C[C@@H]1CCCO1
2. COc1ccc(O[C@H]2C=C[C@@H](c3ccccc3)O[C@@H]2CON=C(C)CCN2CCCc3nc(C)c(C)cc32)cc1
3. C#CCCCON=C1C[C@@H](O)[C@@H](O)[C@@H]2[C@@H]3C(=O)N(C[C@@H]4CCCO4)C(=O)[C@@H]3CC[C@@H]12
4. CO[C@@H]1COC(=O)CC=C[C@H](C)[C@H](OC)COC(=O)[C@@H]2CCCN2C(=O)CC=C[C@H]1C
5. CC(CCN1CCCc2nc(C)c(C)cc21)=NO[C@@H](C)c1cn([C@H](CO)Cc2ccccc2)nn1

(A)
1. -2.39
2. -0.752
3. -0.85
4. -0.222
5. -1.1

I have 3 molecules here; please give me composite z-score for each one.
1. C[C@@H]1CC[C@H]2C(=O)O[C@@H](COc3ccc(C(C)(C)C)cc3)CN2[C@H]1c1ccc(Br)cc1
2. CSCC[C@@H]1NC(=O)CC=C[C@@H](C)COC(=O)[C@H](C)COC1=O
3. O=C1C[C@@H](O)[C@@H](O)[C@@H]2[C@@H]3C(=O)N(C4CCCCC4)C(=O)[C@@H]3CC[C@@H]12

(A)
[0.444, -0.766, -0.506]
